assay.summary: recombinant UMI read abundance after kanamycin selection (control-corrected) (log10(CPM+1)); higher = more efficient recombination; extreme values may be limits of the assay; sequences stand for … in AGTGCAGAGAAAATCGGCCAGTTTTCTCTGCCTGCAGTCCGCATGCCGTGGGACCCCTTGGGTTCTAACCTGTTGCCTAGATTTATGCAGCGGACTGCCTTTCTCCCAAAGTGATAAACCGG…AGGTTGGTTTCACT; site = the 11-nt donor;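 further: IS621 bridge recombinase in Escherichia coli cells against a fixed T5 target plasmid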
Response field class: string, computed from recorded recombinant UMI read abundance (log10) by ranges lo: < 0.02; mid: ≥ 0.02 and < 0.6; hi: ≥ 0.6

1) GAGCTCACATGGACCGGTTTTCCCGGTAATCCGTATTTGAT (site GAGCTGACTAT): lo
2) TCCACCGCATGGACCGGTTTTCCCGGTAATCCGTATTTGGG (site TCCACCGCTCT): lo
3) TGCTAGGCATGGACCGGTTTTCCCGGTAATCCGTATTTGGG (site TGCTAGGCTCC): lo
4) CGGACTACATGGACCGGTTTTCCCGGTAATCCGTATTTGCG (site CGGACTACTCG): hi
5) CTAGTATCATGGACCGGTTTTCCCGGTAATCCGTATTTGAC (site CTACTATCTGG): lo
6) CCTCTCTCATGGACCGGTTTTCCCGGTAATCCGTATTTGTA (site CCTCTCTCTTA): mid
7) AAATATTCATGGACCGGTTTTCCCGGTAATCCGTATTTGGG (site AAATATTCTCC): mid
8) CCGGGTCCATGGACCGGTTTTCCCGGTAATCCGTATTTGCA (site CCCGGTCCTTG): lo
9) CTAGTGTCATGGACCGGTTTTCCCGGTAATCCGTATTTGAC (site CTAGTCTCTGT): lo
10) TATAAAGCATGGACCGGTTTTCCCGGTAATCCGTATTTGGA (site TATAAAGCTTC): hi
11) CGGGCGTCATGGACCGGTTTTCCCGGTAATCCGTATTTGCC (site CGGGGGTCTGG): lo
12) GTTAGTCCATGGACCGGTTTTCCCGGTAATCCGTATTTGAA (site GTTAGTCCTTT): mid
13) GCAATTGCATGGACCGGTTTTCCCGGTAATCCGTATTTGCC (site GCAATTGCTGG): lo
14) CCGGGTCCATGGACCGGTTTTCCCGGTAATCCGTATTTGCA (site CCGGGTCCTTG): lo
15) AAGCACGCATGGACCGGTTTTCCCGGTAATCCGTATTTGGC (site AAGCACGCTGC): hi
16) CGGTAGACATGGACCGGTTTTCCCGGTAATCCGTATTTGCA (site CGGTAGACTTG): hi
17) TAGCCTGCATGGACCGGTTTTCCCGGTAATCCGTATTTGAT (site TAGCCTGCTAT): mid
18) TTGATCTCATGGACCGGTTTTCCCGGTAATCCGTATTTGCG (site TTGATCTCTCG): hi
19) TGGCTGGCATGGACCGGTTTTCCCGGTAATCCGTATTTGGC (site TGGCTGGCTGC): hi
20) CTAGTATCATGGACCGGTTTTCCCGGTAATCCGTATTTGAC (site ATAGTATCTGT): mid
21) GAAGATTCATGGACCGGTTTTCCCGGTAATCCGTATTTGGT (site GAAGATTCTAT): hi
22) CGTCTCTCATGGACCGGTTTTCCCGGTAATCCGTATTTGTA (site CTTCTCTCTTA): hi
23) GCCTAGACATGGACCGGTTTTCCCGGTAATCCGTATTTGGG (site GCCTAGACTCC): mid
24) GCTACTGCATGGACCGGTTTTCCCGGTAATCCGTATTTGCT (site GCTACTGCTGG): lo
25) TTAGCTGCATGGACCGGTTTTCCCGGTAATCCGTATTTGTG (site TTAGCTGCTTA): mid
26) CCAGCGCCATGGACCGGTTTTCCCGGTAATCCGTATTTGTG (site CCAGCGCCTCA): mid
27) GGTCGGCCATGGACCGGTTTTCCCGGTAATCCGTATTTGAA (site GGTCGGCCTTT): lo
28) ATCTATACATGGACCGGTTTTCCCGGTAATCCGTATTTGAC (site ATCTTTACTGT): lo
29) TCACACTCATGGACCGGTTTTCCCGGTAATCCGTATTTGCA (site TCAGACTCTTG): lo
30) TACTTGACATGGACCGGTTTTCCCGGTAATCCGTATTTGCT (site TACTTGACTAC): mid
31) TATCACACATGGACCGGTTTTCCCGGTAATCCGTATTTGTC (site TATCACACTGA): hi
32) TTAGGTGCATGGACCGGTTTTCCCGGTAATCCGTATTTGTG (site TTAGCTGCTCA): mid
33) GCACTGCCATGGACCGGTTTTCCCGGTAATCCGTATTTGCT (site GCACTGCCTAG): hi
34) AGGGCTACATGGACCGGTTTTCCCGGTAATCCGTATTTGAC (site AGGTCTACTGT): hi
35) TAACGAGCATGGACCGGTTTTCCCGGTAATCCGTATTTGGG (site TAACGAGCTCC): mid
36) CTCTACACATGGACCGGTTTTCCCGGTAATCCGTATTTGCA (site CTCTACACTGG): hi

Hello, the source for this data is the supplement of paper PMC11208160, in case you need it.
